List of IC50 values.
- assay.target: UniProt:P49841
- test.protocol: GSK3b TR-FRET kinase assay
- Format: biochemical
- condition.notes: read-out: GSK3-B (TR-FRET 1 mM ATP); GMean; IC50; 1 mM ATP; geometric mean

CCC1(c2cccc(-c3cnn4c3CCCC4)c2)C2=C(CC(C)(C)CC2=O)Nc2n[nH]cc21 (stereo not drawn); 1 to 5 µM

Quick one: IC50 of `CC[C@@]1(c2cccc(N(C)c3ncccn3)c2)C2=C(CC(C)(C)C2=O)Nc2n[nH]cc21` ? > 5 µM

I have this molecule here, CCC1(c2cccc(-c3c(C)nnn3C)c2)C2=C(CC(C)(C)CC2=O)Nc2n[nH]cc21 (stereo not drawn) [Compound 943996] , and I need its recorded IC50. 0.1 to 1 µM

Requested read-out: IC50. Entry: CCC1(c2cccc(S(=O)(=O)C3CC3)c2)C2=C(CC(C)(C)CC2=O)Nc2n[nH]cc21 (stereo not drawn) [Compound 909204] 0.1 to 1 µM

For the molecule CCC1(c2cccc(C)c2)C2=C(CC(C)(C)CC2=O)Nc2n[nH]cc21 (stereo not drawn) , what IC50 is on record? > 5 µM

Which IC50 is listed for `CC[C@]1(c2cccc(-c3ccncc3F)c2)C2=C(CC(C)(C)CC2=O)Nc2n[nH]c(C(F)(F)F)c21` ? ≤ 0.1 µM

----------
Overview of reported pIC50 across a group of compounds:
- assay.target: GSK3b (GST-full length GSK3b) (Homo sapiens (Human), UniProt P49841)
- Sequence (P49841 whole entry): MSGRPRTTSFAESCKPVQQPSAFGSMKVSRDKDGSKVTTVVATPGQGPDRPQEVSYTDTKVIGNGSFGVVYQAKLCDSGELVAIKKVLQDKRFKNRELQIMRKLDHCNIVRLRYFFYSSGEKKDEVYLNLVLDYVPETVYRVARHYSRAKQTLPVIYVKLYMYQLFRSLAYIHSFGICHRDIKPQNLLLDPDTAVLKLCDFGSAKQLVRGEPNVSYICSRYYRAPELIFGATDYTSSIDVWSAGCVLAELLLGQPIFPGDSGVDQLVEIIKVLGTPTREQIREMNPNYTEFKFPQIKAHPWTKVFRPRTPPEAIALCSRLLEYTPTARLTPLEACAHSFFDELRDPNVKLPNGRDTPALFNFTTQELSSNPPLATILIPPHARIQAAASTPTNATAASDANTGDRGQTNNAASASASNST
- test.protocol: GSK3b TR-FRET kinase assay
- Format: biochemical
- condition.notes: 1 nM GSK3b, 2 μM ATP, 30 minute preincubation, Table 16; read-out: GSK3-B TR-FRET BIOCHEMICAL (TR-FRET); IC50
pIC50: −log10 of the molar value.

For CC1(C)CC(=O)C2=C(C1)Nc1n[nH]cc1C21CCCN(C(=O)c2ccccc2)CC1 (stereo not shown) , what is its reported pIC50? 5.30 to 6.00

# query: pIC50 of entry CCC1(c2cccc(-c3cc(C)nn3C)c2)C2=C(CC(C)(C)C2=O)Nc2n[nH]cc21 (stereo not shown) 5.30 to 6.00

Look at this compound and give its reported pIC50. `CC1(C)CC(=O)C2=C(C1)Nc1n[nH]cc1[C@]21CO[C@H](C2CC2)C1` 5.30 to 6.00

Given the compound CCC1(c2cccc(-c3ccncc3F)c2)C2=C(CC(C)(C)NC2=O)Nc2n[nH]c(C(F)F)c21 (stereo not shown) [Compound 951599] , what is its reported pIC50? 6.00 to 7.00

Query (compound): `CC[C@@]1(c2ccccc2)C2=C(Nc3n[nH]cc31)[C@@H](C)C[C@@H](C)C2=O` ; field requested: pIC50 6.00 to 7.00

I would be grateful if you could share the reported pIC50 for CCC1(c2cccc(-c3c(C)nnn3C)c2)C2=C(CC(C)(C)C2=O)Nc2n[nH]cc21 (stereo not shown) . 5.30 to 6.00

Would you mind telling me what pIC50 value was observed for CCC1(c2cccc(-c3ccnc(OC(F)F)c3)c2)C2=C(CC(C)(C)CC2=O)Nc2n[nH]cc21 (stereo not shown) ? 6.00 to 7.00

----------
- assay.target: UniProt P49841
- test.protocol: GSK3b TR-FRET kinase assay
- Type: biochemical
- condition.notes: 1 nM GSK3b, 2 μM ATP, 30 minute preincubation; geometric mean; read-out: GSK3-B TR-FRET BIOCHEMICAL (TR-FRET); GMean; IC50
- Protocol: TR-FRET Assay: The assay was performed in a white, 384 well, low volume, flat bottom plate (Grenier). After a 30 minute preincubation in assay buffer with the indicated concentration of compound, the kinase activity was initiated by the addition of the substrates. […] After 60 min at room temperature the plate was read on Envision plate reader using Ex: 340 nm, Em: 615 nm and […]. The normalized 665/615 Signal ratio versus log compound concentration was analyzed by XLFIT to yield IC50 values.
pIC50: −log10 of the molar value.
Here the recorded pIC50 is given for each entry.

Record request: pIC50 value, item CCC1(c2cccc(-c3ccnc(C)c3)c2)C2=C(CC(C)(C)NC2=O)Nc2n[nH]c(F)c21 (stereo not drawn) [Compound 948299] 5.30 to 6.00

Fill blank: measured pIC50 of the compound CC1(C)CC(=O)C2=C(C1)Nc1n[nH]cc1[C@@]21CCc2c(F)cccc21 [Compound 806632] is ____. < 5.30

Requested field: pIC50. Item: CC[C@]1(c2cccc(C(F)(F)F)c2)C2=C(CCN(c3cccc(C)c3)C2=O)Nc2n[nH]cc21 [Compound 949041] < 5.30

----------
- assay.target: GSK3α (GST-full length GSK3α) (Homo sapiens (Human), UniProt P49840)
- Sequence (P49840 whole entry): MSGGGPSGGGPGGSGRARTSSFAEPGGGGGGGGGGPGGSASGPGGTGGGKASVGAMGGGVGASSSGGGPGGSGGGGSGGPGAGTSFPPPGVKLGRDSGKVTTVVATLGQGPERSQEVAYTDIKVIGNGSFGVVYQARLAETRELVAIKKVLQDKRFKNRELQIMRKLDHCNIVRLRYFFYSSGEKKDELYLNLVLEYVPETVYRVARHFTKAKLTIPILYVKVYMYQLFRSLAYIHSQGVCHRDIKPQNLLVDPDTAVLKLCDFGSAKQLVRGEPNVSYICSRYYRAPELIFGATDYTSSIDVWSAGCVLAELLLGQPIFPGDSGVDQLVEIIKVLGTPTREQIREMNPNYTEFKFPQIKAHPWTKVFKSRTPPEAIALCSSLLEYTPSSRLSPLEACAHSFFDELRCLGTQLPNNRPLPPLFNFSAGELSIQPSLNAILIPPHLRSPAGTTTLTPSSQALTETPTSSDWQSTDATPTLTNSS
- test.protocol: GSK3α TR-FRET kinase assay
- Format: biochemical
- condition.notes: 1 nM GSK3α, 4 μM ATP, 30 minute preincubation, Table 16; read-out: GSK3-A TR-FRET BIOCHEMICAL (TR-FRET)
pIC50: −log10 of the molar value.
// reported pIC50 for each item listed

Here are 2 molecules together with their reported answers.
CC1(C)CC(=O)C2=C(C1)Nc1n[nH]cc1C21CCN(S(=O)(=O)c2ccccc2C#N)CC1 [Compound 947479]; ≥ 7.00
O=C1CC2(CCC2)CC2=C1C1(CCOCC1)c1c[nH]nc1N2 [Compound 909208]; ≥ 7.00

Find the recorded pIC50 belonging to Cn1ccc(S(=O)(=O)N2CC[C@@]3(C2)C2=C(CC(C)(C)CC2=O)Nc2n[nH]cc23)n1 [Compound 945714] and report it. ≥ 7.00

----------
- assay.target: GSK3b (GST-full length GSK3b) (Homo sapiens (Human), UniProt P49841)
- test.protocol: GSK3b TR-FRET kinase assay
- Format: biochemical
- condition.notes: 1 nM GSK3b, 2 μM ATP, 30 minute preincubation, Table 16; read-out: GSK3-B TR-FRET BIOCHEMICAL (TR-FRET)
Entries and their IC50

Observe how each entry below is paired with its result.
CC1(C)CC(=O)C2=C(C1)Nc1n[nH]cc1C21CCN(CC(F)F)CC1; 100 to 1000 nM
CCC1(c2cccc(C(F)F)c2)C2=C(CC(C)(C)CC2=O)Nc2n[nH]c(C(F)(F)F)c21 (stereo not drawn); ≤ 100 nM
CC1(C)CC(=O)C2=C(C1)Nc1n[nH]cc1C21CCC(c2ccccc2)CC1 (stereo not drawn) [Compound 912084]; ≤ 100 nM

GET /values?readout=IC50&item= `CC[C@]1(c2cccc(-c3ccnn3C)c2)C2=C(Nc3n[nH]cc31)[C@H](F)C(C)(C)CC2=O` > 5000 nM

I have this molecule here, CCN(c1cccc(C2(CC)C3=C(CC(C)(C)CC3=O)Nc3n[nH]cc32)c1)c1ncccn1 (stereo not drawn) , and I need its recorded IC50. ≤ 100 nM

State the recorded IC50 for this entry: `CC[C@]1(c2cccc(-c3ccncc3O)c2)C2=C(CC(C)(C)CC2=O)Nc2n[nH]cc21` ≤ 100 nM

For the molecule `CC[C@@]1(c2cccc(-c3cnn(C)c3)c2)C2=C(Nc3n[nH]cc31)[C@H](F)C(C)(C)CC2=O` , what IC50 is on record? 1000 to 5000 nM

Look at this molecule and give its reported IC50. CC[C@@]1(c2ccccc2)C2=C(CC(C)(C)C(O)C2=O)Nc2n[nH]cc21 (stereo partly drawn) > 5000 nM

Which IC50 is reported for this molecule? `COc1cccc(S(=O)(=O)N2CCC3(CC2)C2=C(CC(C)(C)CC2=O)Nc2n[nH]cc23)c1F` ≤ 100 nM

----------
Listed here: items and their measured pIC50.
- assay.target: GSK3α (GST-full length GSK3α) (Homo sapiens (Human), UniProt P49840)
- test.protocol: GSK3α TR-FRET kinase assay
- Type: biochemical
- condition.notes: 1 nM GSK3α, 4 μM ATP, 30 minute preincubation, Table 16; read-out: GSK3-A TR-FRET BIOCHEMICAL (TR-FRET)
- Experimental: TR-FRET Assay: The assay was performed in a white, 384 well, low volume, flat bottom plate (Grenier). After a 30 minute preincubation in assay buffer with the indicated concentration of compound, the kinase activity was initiated by the addition of the substrates. […] After 60 min at room temperature the plate was read on Envision plate reader using Ex: 340 nm, Em: 615 nm and […]. The normalized 665/615 Signal ratio versus log compound concentration was analyzed by XLFIT to yield IC50 values.
pIC50: −log10 of the molar value.

COc1cccc(S(=O)(=O)N2CC[C@]3(C2)C2=C(CC(C)(C)CC2=O)Nc2n[nH]cc23)c1; ≥ 7.00
CC[C@]1(c2cccc(-c3cc(C)nn3C)c2)C2=C(CC(C)(C)CC2=O)Nc2n[nH]c(C(F)(F)F)c21; 5.30 to 6.00
CCC1(c2cccc(-c3ccncc3F)c2)C2=C(CC(C)(C)CC2=O)Nc2n[nH]c(C(F)(F)F)c21 (stereo not shown); ≥ 7.00
CC1(C)CC(=O)C2=C(C1)Nc1n[nH]cc1[C@]21CCCN(S(=O)(=O)C2CC2)CC1; ≥ 7.00
CC[C@]1(c2cccc(-c3cc(C)ncc3OC)c2)C2=C(CC(C)(C)CC2=O)Nc2n[nH]cc21; ≥ 7.00

Notebook: pull reported pIC50 for GSK3α (GST-full length GSK3α) (Homo sapiens (Human), UniProt P49840), entry CCC1(c2cccc(OCC(F)F)c2)C2=C(CC(C)(C)CC2=O)Nc2n[nH]cc21 (stereo not shown) ≥ 7.00

GSK3α (GST-full length GSK3α) (Homo sapiens (Human), UniProt P49840) / pIC50 / `C[C@@H]1C[C@@]2(CCO1)C1=C(CC(C)(C)CC1=O)Nc1n[nH]cc12` : value? 6.00 to 7.00
